Every entry's value here was drawn from patent US20220396620A1.

- tested_system: human cannabinoid receptor type 1 (CB1) (human, UniProt P21554 1-472); note: test concentration or dose not given here
- Sequence (P21554 whole entry): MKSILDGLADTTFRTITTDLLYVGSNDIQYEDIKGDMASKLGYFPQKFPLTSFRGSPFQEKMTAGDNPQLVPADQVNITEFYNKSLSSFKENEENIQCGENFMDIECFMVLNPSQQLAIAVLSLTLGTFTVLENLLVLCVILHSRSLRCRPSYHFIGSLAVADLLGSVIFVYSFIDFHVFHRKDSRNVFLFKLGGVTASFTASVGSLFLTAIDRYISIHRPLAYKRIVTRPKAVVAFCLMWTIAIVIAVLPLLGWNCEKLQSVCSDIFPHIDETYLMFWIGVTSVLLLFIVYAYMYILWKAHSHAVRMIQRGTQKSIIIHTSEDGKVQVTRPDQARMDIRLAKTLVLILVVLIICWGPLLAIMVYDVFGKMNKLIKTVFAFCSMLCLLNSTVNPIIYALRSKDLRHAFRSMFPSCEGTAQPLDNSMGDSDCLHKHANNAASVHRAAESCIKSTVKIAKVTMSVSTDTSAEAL
- assay_overview: cell-based or functional assay
Assign Mean P-ERK (% inhibition) to each entry below.
Numbers only; they are read as % inhibition.

Need Mean P-ERK (% inhibition), item M8 mouse anti-huCB-1 antibody (antibody, V domains shown) VH: QVQLQQPGAELVKPGASVKLSCKASGYTFTDYWMHWVKQRPGHGLEWIGEIYPSSGRANYNGNFKRKATLTVDKSSSTAYMQLSSLTSEDSAVYYCARSRGNYLPYWGHGTPVTVSA VL: QIVLTQSPAIMSASLGERVTMTCTAGSTVSSSYLHWYQQRPGSSPKLWIYGTSNLASGVPARFSGSGSGTSYSLTISSMEAEDAATYYCHQYHRSPPTFGGGTKLEIK
64

Need Mean P-ERK (% inhibition), item M5 mouse anti-huCB-1 antibody (antibody, V domains shown, The humanized M5-H1 and M5-H2 carry the CDRs of the un-numbered VL, so that one may be the functional light chain) VH: QVHLQQSGAELVRPGSSVKISCKASGYEFSYYWMNWVKQRPGQGHEWIGQIYPGDGDTNYNGKFKGKATLTADKSSSTAYMQLSSLTSEDSAVYFCARGREAAWFAYWGQGTLVTVSA VL: DIVLAQSPASLAVSLGQRATISCRASQSVSSFRYSYLHWYQQKPGQPPRLLIKYASNLESGVPARFSGSGSGTDFTLNIHPVEEEDTATYFCQHSWEIPFTFGSGTKLEIKR
101

Need Mean P-ERK (% inhibition), item M6 mouse anti-huCB-1 antibody (antibody, V domains shown) VH: EVQLQQSGPELVKPGASVKISCKASGYTFTDYNLHWVKHGKSLEWIGYIYPYDGDTGYKQKFKGKATLTADKSSSTAYMELRSLTCEDSAVYYCARGYGNSWGAYWGQGTLVTVSA VL: EIVLTQSPTTMAASPGEKITITCSATSSISSNYLHWYQQKPGFSPKLLIYRTSNLASGVPARFSGSGSGTSYSLTIGTMEAEDVATYYCQQGSSIPYTFGGGTKLEIK
42
